Entry source: ChEMBL document CHEMBL3045201

Reported values of I90 for individual entries
Test system: Rhizoctonia solani
procedure_summary: Fungicidal activity against Rhizoctonia solani infected in 24 hr compound pre-treated Oryza sativa cv. Chukyoasahi assessed as disease control measured after 10 days
Type: functional

# annotated cases, reported I90 shown
Nc1c(C(F)(F)F)cc([N+](=O)[O-])c(Nc2ncc(C(F)(F)F)cc2Cl)c1[N+](=O)[O-]
>500 ppm
CC(C)COc1c(C(F)(F)F)cc([N+](=O)[O-])c(Nc2ncc(C(F)(F)F)cc2Cl)c1[N+](=O)[O-]
63 ppm
C[S+]([O-])c1c(C(F)(F)F)cc([N+](=O)[O-])c(Nc2ncc(C(F)(F)F)cc2Cl)c1[N+](=O)[O-] (centres undefined)
>500 ppm

Okay, now this molecule:
Reading of I90 for O=[N+]([O-])c1cc(C(F)(F)F)c(I)c([N+](=O)[O-])c1Nc1ncc(C(F)(F)F)cc1Cl with Rhizoctonia solani: >500 ppm
